Protein target, amino acids: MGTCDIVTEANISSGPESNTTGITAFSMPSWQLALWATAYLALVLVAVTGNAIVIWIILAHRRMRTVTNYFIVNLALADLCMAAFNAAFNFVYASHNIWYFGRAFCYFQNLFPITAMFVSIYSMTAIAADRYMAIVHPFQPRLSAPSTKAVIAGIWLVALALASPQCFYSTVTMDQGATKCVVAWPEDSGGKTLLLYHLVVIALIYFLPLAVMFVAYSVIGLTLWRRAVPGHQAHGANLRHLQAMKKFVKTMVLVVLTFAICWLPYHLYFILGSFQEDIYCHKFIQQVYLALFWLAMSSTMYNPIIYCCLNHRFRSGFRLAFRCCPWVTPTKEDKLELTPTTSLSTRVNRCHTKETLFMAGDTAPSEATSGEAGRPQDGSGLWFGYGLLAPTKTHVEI
value type: Ki (µM)
Number in µM, nothing else.

Asked: Answer with reported Ki of CCOC(=O)C1C(C)OC2OC(COCc3ccccc3)C(OCc3ccccc3)C(=O)C2[S+]1[O-] (stereo unspecified)
Given back: 0.79
